molecules and their reported chromatographic logP
EXPERIMENT: log P(HCOOH) (HPLC/MS)
Assay type: physicochemical
TEST_PARAMETERS: HCOOH (formic acid); read-out: log P(HCOOH)
API doc: respond with a numeric literal and nothing else, no unit.

Reference set (3 entries):
[
  {
    "MOLECULE": "Cn1nnnc1C(=NOCc1cccc(N)n1)c1ccccc1",
    "MEASURED_PARAMETER": "chromatographic logP",
    "ASSAY_RESULT": 1.14
  },
  {
    "MOLECULE": "O=C1c2ccccc2C(=O)N1OCc1cccc(N2C(=O)c3ccccc3C2=O)n1",
    "MEASURED_PARAMETER": "chromatographic logP",
    "ASSAY_RESULT": 2.44
  },
  {
    "MOLECULE": "Cn1nnnc1/C(=N\\OCc1cccc(NC(=O)OCCCCCl)n1)c1ccccc1",
    "MEASURED_PARAMETER": "chromatographic logP",
    "ASSAY_RESULT": 3.67
  }
]

Moving on to another molecule below.
Looking for the measured chromatographic logP of Cn1nnnc1C(=NOCc1cccc(N2C(=O)c3ccccc3C2=O)n1)c1ccccc1 , can you help?
3.04

---

EXPERIMENT: log P(HCOOH) (HPLC/MS)
Type: physicochemical
TEST_PARAMETERS: HPLC on reversed phase columns, EEC directive 79/831 Annex V.A8; pH 2.7, 0.1% formic acid in water / acetonitrile gradient
MEASURED_PARAMETER: log p
API doc: respond with a numeric literal and nothing else, no unit.

[
  {
    "MOLECULE": "Cn1nnnc1C(=NOCc1csc(NC(=O)CC2CC2)n1)c1cccc(F)c1",
    "log p": 2.98
  }
]

Looking for the measured log p of Cn1nnnc1C(=NOCc1csc(NC(=O)C(F)(F)C(F)(F)C(F)(F)F)n1)c1cccc(F)c1 , can you help?
3.75

What do you get for C=C(C)OC(=O)Nc1nc(CON=C(c2ccccc2)n2nnnc2C)cs1 ?
2.96

What do you get for Cc1nnnn1C(=NOCc1cccc(NC(=O)CCC2CCCC2)n1)c1ccccc1 ?
4.25

What do you get for C#CCCOC(=O)Nc1cccc(CON=C(c2cccc(F)c2)n2nnnc2C)n1 ?
3.21

What do you get for Cc1nnnn1C(=NOCc1cccc(NC(=O)CO[C@@H]2C[C@H](C)CC[C@H]2C(C)C)n1)c1ccccc1 ?
5.95

What do you get for C#CCCOC(=O)Nc1cccc(CON=C(c2cccc(F)c2)c2nnnn2C)n1 ?
3.21

What do you get for C#CCCCC(=O)Nc1cccc(CON=C(c2ccccc2)c2nnnn2C)n1 ?
2.98

---

EXPERIMENT: log P(HCOOH) (HPLC/MS)
Format: physicochemical
TEST_PARAMETERS: HPLC on reversed phase columns, EEC directive 79/831 Annex V.A8; pH 2.7, 0.1% formic acid in water / acetonitrile gradient
MEASURED_PARAMETER: log p
API doc: respond with a numeric literal and nothing else, no unit.

[
  {
    "COMPOUND": "Cc1nnnn1C(=NOCc1csc(NC(=O)CCCC2CCCCC2)n1)c1ccccc1 [Example 229]",
    "log p": 4.82
  },
  {
    "COMPOUND": "Cc1nnnn1C(=NOCc1cccc(NC(=O)C2(c3ccccc3)CC2)n1)c1ccccc1 [Example 110]",
    "log p": 2.55
  }
]

Looking for the measured log p of COCCOCC(=O)Nc1nc(CON=C(c2cccc(F)c2)c2nnnn2C)cs1 [Example 183] , can you help?
2.68

What do you get for Cn1nnnc1C(=NOCc1csc(NC(=O)CCC2CCCCC2)n1)c1ccccc1 [Example 206] ?
4.3

What do you get for Cn1nnnc1C(=NOCc1csc(NC(=O)Cc2ccsc2)n1)c1cccc(F)c1 [Example 233] ?
3.21

What do you get for Cc1nnnn1C(=NOCc1cccc(NC(=O)COCc2ccccc2)n1)c1ccccc1 [Example 144] ?
3.73

What do you get for C=CCCOC(=O)Nc1cccc(CON=C(c2ccccc2)c2nnnn2C)n1 [Example 57] ?
3.51

What do you get for Cc1nnnn1C(=NOCc1cccc(NC(=O)OC2CCCCCC2)n1)c1ccccc1 [Example 21] ?
4.71

What do you get for Cc1nnnn1C(=NOCc1cccc(NC(=O)OCCCCCl)n1)c1ccccc1 [Example 20] ?
3.73

What do you get for Cn1nnnc1C(=NOCc1cccc(NC(=O)CSCc2ccccc2)n1)c1ccccc1 [Example 218] ?
3.73

What do you get for Cc1nnnn1C(=NOCc1cccc(NC(=O)CC2CC2)n1)c1ccccc1 [Example 124] ?
2.94

What do you get for Cn1nnnc1C(=NOCc1csc(NC(=O)CSCc2ccccc2)n1)c1cccc(F)c1 [Example 194] ?
3.68

What do you get for Cn1nnnc1C(=NOCc1cccc(NC(=O)c2cccs2)n1)c1ccccc1 [Example 214] ?
3.21

What do you get for Cc1nnnn1C(=NOCc1cccc(NC(=O)C2CCC(=O)O2)n1)c1ccccc1 (centres unmarked) [Example 130] ?
2.44

What do you get for Cn1nnnc1C(=NOCc1csc(NC(=O)CCCOc2ccccc2)n1)c1cccc(F)c1 [Example 196] ?
3.7

What do you get for Cc1nnnn1C(=NOCc1cccc(NC(=O)CSCc2ccccc2)n1)c1ccccc1 [Example 151] ?
3.73

What do you get for Cc1nnnn1C(=NOCc1cccc(NC(=O)c2ccc(Cl)nc2)n1)c1ccccc1 [Example 121] ?
3.15

What do you get for Cc1nnnn1C(=NOCc1cccc(NC(=O)CC2CCCCC2)n1)c1ccccc1 [Example 40] ?
4.12

What do you get for CCOC(=O)CCCC(=O)Nc1cccc(CON=C(c2ccccc2)n2nnnc2C)n1 [Example 148] ?
2.98

What do you get for Cc1nnnn1C(=NOCc1cccc(NC(=O)CCC2CCCC2)n1)c1cccc(F)c1 [Example 45] ?
4.33

---

molecules and their reported log p
EXPERIMENT: log P(HCOOH) (HPLC/MS)
Assay type: physicochemical
TEST_PARAMETERS: HPLC on reversed phase columns, EEC directive 79/831 Annex V.A8; pH 2.7 with 0.1% formic acid in water and acetonitrile
API doc: respond with a numeric literal and nothing else, no unit.

Reference set (5 entries):
[
  {
    "MOLECULE": "Cn1nnnc1C(=NOCc1csc(NC(=O)COc2cccc(Cl)c2)n1)c1ccccc1",
    "log p": 3.7
  },
  {
    "MOLECULE": "Cn1nnnc1C(=NOCc1csc(NC(=O)COc2ccc(Cl)cc2)n1)c1ccccc1",
    "log p": 3.68
  },
  {
    "MOLECULE": "Cn1nnnc1C(=NOCc1cccc(NC(=O)c2ccccc2OC(F)(F)F)n1)c1cccc(F)c1",
    "log p": 3.9
  },
  {
    "MOLECULE": "COCCOCC(=O)Nc1nc(CON=C(c2ccccc2)c2nnnn2C)cs1",
    "log p": 2.54
  },
  {
    "MOLECULE": "CC1CCC(C(C)C)C(OCC(=O)Nc2nc(CON=C(c3ccccc3)c3nnnn3C)cs2)C1 (centres unmarked)",
    "log p": 5.39
  }
]

Looking for the measured log p of Cc1ccccc1C(=O)Nc1cccc(CON=C(c2cccc(F)c2)c2nnnn2C)n1 , can you help?
3.61

What do you get for C#CCCOC(=O)Nc1cccc(CON=C(c2ccccc2Cl)c2nnnn2C)n1 (mixture of isomers) ?
3.21

What do you get for COc1ccccc1C(=O)Nc1cccc(CON=C(c2cccc(F)c2)c2nnnn2C)n1 ?
3.79

What do you get for Cc1ccc(C(=O)Nc2cccc(CON=C(c3ccccc3)c3nnnn3C)n2)cc1 ?
3.65

What do you get for Cn1nnnc1C(=NOCc1csc(NC(=O)c2cccc(Cl)c2)n1)c1ccccc1 ?
3.73

What do you get for Cn1nnnc1C(=NOCc1csc(NC(=O)c2cc(F)cc(F)c2)n1)c1ccccc1 ?
3.63

What do you get for Cn1nnnc1C(=NOCc1cccc(NC(=O)c2cccnc2Cl)n1)c1cccc(F)c1 ?
2.94

---

EXPERIMENT: log P(HCOOH) (HPLC/MS)
Format: physicochemical
TEST_PARAMETERS: HPLC on reversed phase columns, EEC directive 79/831 Annex V.A8; pH 2.7 with 0.1% formic acid in water and acetonitrile
molecules and their reported log p

[
  {
    "MOLECULE": "Cc1ccccc1C(=O)Nc1cccc(CON=C(c2ccccc2)c2nnnn2C)n1",
    "log p": 3.5
  }
]

Looking for the measured log p of CCOc1cccc(C(=O)Nc2cccc(CON=C(c3ccccc3)c3nnnn3C)n2)c1 , can you help?
3.79

What do you get for COc1ccccc1C(=O)Nc1nc(CON=C(c2ccccc2)c2nnnn2C)cs1 ?
3.5

What do you get for Cn1nnnc1C(=NOCc1cccc(NC(=O)CCOc2ccccc2)n1)c1ccccc1Cl (mixture of isomers) ?
3.63

---

EXPERIMENT: log P(HCOOH) (HPLC/MS)
Format: physicochemical
TEST_PARAMETERS: HPLC on reversed phase columns, EEC directive 79/831 Annex V.A8; pH 2.7 with 0.1% formic acid in water and acetonitrile
MEASURED_PARAMETER: log p
API doc: respond with a numeric literal and nothing else, no unit.

Reference set (5 entries):
[
  {
    "COMPOUND": "C=CCCOC(=O)Nc1cccc(CON=C(c2ccccc2C)c2nnnn2C)n1 (mixture of isomers)",
    "log p": 3.65
  },
  {
    "COMPOUND": "CC(Oc1ccc(F)cc1)C(=O)Nc1cccc(CON=C(c2ccccc2)c2nnnn2C)n1 (mixture of isomers)",
    "log p": 3.79
  },
  {
    "COMPOUND": "COCCOC(=O)Nc1nc(CON=C(c2cccc(F)c2)c2nnnn2C)cs1",
    "log p": 2.66
  },
  {
    "COMPOUND": "Cc1ccc(C(=O)Nc2nc(CON=C(c3ccccc3)c3nnnn3C)cs2)cc1",
    "log p": 3.59
  },
  {
    "COMPOUND": "C#CCCOC(=O)Nc1cccc(CON=C(c2cccc(F)c2)c2nnnn2C)n1",
    "log p": 3.21
  }
]

Looking for the measured log p of Cc1ccccc1C(=O)Nc1nc(CON=C(c2ccccc2)c2nnnn2C)cs1 , can you help?
3.41

What do you get for Cn1nnnc1C(=NOCc1cccc(NC(=O)c2ccccc2Cl)n1)c1cccc(F)c1 ?
3.57

What do you get for CCCCc1ccc(C(=O)Nc2nc(CON=C(c3ccccc3)c3nnnn3C)cs2)cc1 ?
4.68

What do you get for Cn1nnnc1C(=NOCc1cccc(NC(=O)c2ccccc2F)n1)c1cccc(F)c1 ?
3.65

What do you get for Cn1nnnc1C(=NOCc1csc(NC(=O)c2ccccc2OC(F)(F)F)n1)c1ccccc1 ?
3.61

What do you get for Cn1nnnc1C(=NOCc1csc(NC(=O)COc2ccccc2-c2ccccc2)n1)c1ccccc1 ?
4.32

What do you get for Cn1nnnc1C(=NOCc1csc(NC(=O)c2ccc(Cl)cc2)n1)c1ccccc1 ?
3.74

What do you get for Cn1nnnc1C(=NOCc1csc(NC(=O)COc2ccccc2Cl)n1)c1ccccc1 ?
3.61

What do you get for Cn1nnnc1C(=NOCc1csc(NC(=O)CC23CC4CC(CC(C4)C2)C3)n1)c1ccccc1 ?
4.69

Reference source: patent US8614217B2
